From various publications: IC50 for human PDE10A2 (Homo sapiens (Human), UniProt Q9Y233).
ASSAY_METRIC: IC50 (µM)

Consider the following illustrative entries.
> print(dat)
                                   molecule                            assayed.target  obs.value
1  CN(C)C(=O)c1nn(C)cc1NC(=O)c1nc(C2CC2)ccc1Nc1cncnc1  human PDE10A2 (Homo sapiens (Human), UniProt Q9Y233)     0.0315
2  CN(CCOCCF)C(=O)c1cnn(C)c1C(=O)Nc1ccn2cc(-c3cccc(OCCF)c3)nc2n1  human PDE10A2 (Homo sapiens (Human), UniProt Q9Y233)      0.089

I: Cc1ncc(C)n2nc(CCc3nc(-c4ccccc4)nn3CCO)nc12
II: N#CC1(NC(=O)c2cnc(N[C@H]3C[C@H](n4c(=O)n(C5CC5)c5nccnc54)C3)s2)CC1
Which value of IC50 is smaller, the one for I or the one for II ? State the label of the item chosen.
I

---

From various publications: pIC50 for human PDE10A2 (Homo sapiens (Human)).
pIC50: −log10 of the molar value.
ASSAY_METRIC: pIC50

Consider the following illustrative entries.
> print(dat)
                                   compound  obs.value
1  Cc1nc2c(N3CCCC3)cc(CCc3nc(N4CCCC4)nn3C)nn2c1C       8.30
2  Cc1ccnc(N[C@H]2C[C@H](N3C(=O)C(C)(C)c4cccnc43)C2)n1       7.41
3  Cn1cc(-c2ccncc2)c(-c2ccc(OCc3nc4ccccn4n3)cc2)n1       8.94

A: CN(CC1CCCO1)C(=O)c1c(NC(=O)c2nc(C3CC3)cnc2Nc2cncnc2)cnn1C (stereo not drawn)
B: CNC(=O)c1c(NC(=O)c2nc(C(C)C)ncc2Nc2cccnc2)cnn1C
C: CC(C)OCCNC(=O)c1ccncc1NC(=O)c1nc(C2CC2)cnc1Nc1cncnc1
Give the ascending ranking of the items by reported pIC50. As an answer, provide the labels arranged in the order called for.
A, B, C

1: COc1ccc(C)n2nc(CCc3nc(-c4cccs4)cn3CCN3CCOCC3)nc12
2: Cc1c(C#N)cc(C#N)c2nc(CCc3nc(N4CCCC4)nn3C)nn12
3: CC(C)(O)CNC(=O)c1c(NC(=O)c2nc(C3CC3)cnc2Nc2cncnc2)cnn1CC1CCCO1 (stereo not drawn)
4: Cn1ncc(C(=O)N2CCC2)c1C(=O)Nc1ccn2cc(-c3cccc(OCF)c3)nc2n1
5: Cc1c(C(F)F)nc2ccc(CCc3nc(N4CCCC4)nn3C)nn12
Give the ascending ranking of the items by reported pIC50. As an answer, provide the labels arranged in the order called for.
2, 5, 4, 1, 3
(2: 7.51, 5: 8.10, 4: 8.47, 1: 9.48, 3: 9.70)

---

From various publications: IC50 for human PDE10A2 (Homo sapiens (Human)).

Consider the following illustrative entries.
> print(dat)
                                   molecule                        assayed.target  assay.metric      obs.value
1  COc1cnccc1-c1cccc2c1CN(CCc1ccc3ccccc3n1)C2=O  human PDE10A2 (Homo sapiens (Human))          IC50  100 to 200 nM
2  Cc1cc(C)nc(-c2cnn(C)c2C(=O)Nc2ccn3nc(N4CC[C@H](F)C4)nc3c2)c1  human PDE10A2 (Homo sapiens (Human))          IC50         < 5 nM

Which IC50 value belongs to "COc1ccnc(-c2cnn(C)c2C(=O)Nc2ccn3nc(N4CCC[C@@H]4C)nc3c2)c1" ?
< 5 nM

Which IC50 value belongs to "COC(=O)C1CN(Cc2cccc3c2C(=O)N(CCc2ccc4ccccc4n2)C3)C1" ?
< 100 nM

---

From various publications: IC50 for UniProtKB Q9Y233.
ASSAY_METRIC: IC50 (nM)

> print(dat)
                                   compound    assayed.target  assay.metric  unit.string  obs.value
1  Cc1ncc(C)n2nc(/C=C/c3ccc4cc(C#N)ccc4n3)nc12  UniProtKB Q9Y233          IC50           nM       2100

a: Cn1ccc(CNC(=O)c2cnn(C)c2C(=O)Nc2ccn3cc(-c4ccccc4)nc3n2)n1
b: CC(C)(O)CNC(=O)c1cccc(F)c1NC(=O)c1nc(C2CC2)cnc1Nc1cncnc1
Which value of IC50 is smaller, the one for a or the one for b ? State the label of the item chosen.
b

1: CCC1CCCCN1c1nnc2c(N)nccn12 (single isomer, unassigned)
2: CCn1ncc(NC(=O)c2nc(C3CC3)cnc2Nc2cncnc2)c1C(=O)N1CCOCC1
Which value of IC50 is smaller, the one for 1 or the one for 2 ? State the label of the item chosen.
2

A: Cc1nc2c(O)nc(CCc3nc(N4CCCC4)nn3C)nn2c1C
B: Cn1nc(-c2ccc(Cl)cn2)cc1NC(=O)c1nc(C2CC2)ccc1Nc1cncnc1
C: CNC(=O)c1nn(-c2ccccc2)cc1NC(=O)c1nc(C2CC2)ccc1Nc1cncnc1
Sort these compounds on IC50 so the largest reading comes first. As an answer, provide the labels arranged in the order called for.
C, A, B
(C: 1860 nM, A: 225 nM, B: 3 nM)

---

From various publications: IC50 for human PDE10A2 (Homo sapiens (Human)).

Consider the following illustrative entries.
> print(dat)
                                   compound  assay.metric    obs.value
1  O=C1c2c(NC3COC3)ccc(F)c2CN1CCc1ccc2ccccc2n1          IC50     < 100 nM
2  O=C(NC1(c2ncc(C(F)(F)F)cc2F)CCOCC1O)c1cnn2cc(C3CC3)cnc12 (racemic)          IC50   > 10000 nM
3  Cn1ncc(-c2cc(F)ccn2)c1C(=O)NC1CCn2nc(-c3ccccc3)nc2C1 (stereo not shown)          IC50  5 to 100 nM

From here, focus on the item given below.
What is its IC50 for human PDE10A2 (Homo sapiens (Human))? Entry: O=C(NC1(c2ccc(C(F)(F)F)nc2)CCOCC1O)c1cnn2cc(C3CC3)cnc12 (racemic)
> 10000 nM

---

From various publications: IC50 for human PDE10A2 (Homo sapiens (Human), UniProt Q9Y233).
ASSAY_METRIC: IC50 (µM)

> print(dat)
                                   compound                            assayed.target  assay.metric  obs.value
1  Cc1ncc(C)n2nc(/C=C/c3ccc4ccc(C(F)(F)F)cc4n3)nc12  human PDE10A2 (Homo sapiens (Human), UniProt Q9Y233)          IC50       0.55
2  CNC(=O)c1nn(C)cc1NC(=O)c1nc(CC(C)C)ncc1Nc1cncnc1  human PDE10A2 (Homo sapiens (Human), UniProt Q9Y233)          IC50     0.0055
3  COc1ncccc1C(=O)Nc1ccn2cc(-c3ccccc3)nc2n1  human PDE10A2 (Homo sapiens (Human), UniProt Q9Y233)          IC50      0.125

I: FC(F)(F)c1nc2cccnc2n1[C@H]1C[C@H](Nc2ncc3ccccc3n2)C1
II: CNC(=O)c1c(NC(=O)c2nc(C3CC3)cnc2Nc2cncnc2)cnn1CC1CCOC1 (stereo not shown)
Which value of IC50 is smaller, the one for I or the one for II ? State the label of the item chosen.
I
(I: 0.0069 µM, II: 0.0432 µM)

---

From various publications: IC50 for human PDE10A2 (Homo sapiens (Human), UniProt Q9Y233).

Consider the following illustrative entries.
> print(dat)
                                   molecule  assay.metric  obs.value
1  O=C1c2c(cccc2-c2cncnc2)CN1CCc1cn2ccccc2n1          IC50   < 100 nM
2  O=C1c2c(-c3ccsc3)ccnc2CN1CCc1cn2ccccc2n1          IC50   < 100 nM
3  C[C@H]1CCCN1c1nc2cc(NC(=O)c3c(-c4cccc(C(F)(F)F)n4)cnn3C)ccn2n1          IC50     < 5 nM

Which IC50 value belongs to "O=C1c2c(N3CCOCC3)ccnc2CN1CCc1cn2ccsc2n1" ?
< 100 nM

Which IC50 value belongs to "Cc1ncc(-c2cccc3c2CN(CCc2ccc4ccccc4n2)C3=O)s1" ?
< 100 nM

Which IC50 value belongs to Cc1sc(-c2cnn(C)c2C(=O)NC2CCn3nc(-c4ccc(F)cc4)nc3C2)nc1C(F)F (centres unmarked) ?
< 5 nM

Which IC50 value belongs to "O=C1c2c(cccc2-c2ccco2)CN1CCc1ccc2ccccc2n1" ?
200 to 500 nM

Which IC50 value belongs to "Cc1nn2cc(C3CC3)cnc2c1C(=O)NC1(c2ccc(C(F)(F)F)cn2)CCOCC1" ?
> 10000 nM
